Entries annotated with measured EC50
Assay text: Inhibition of PB2 in Influenza A virus (A/Weiss/1943(H1N1)) infected in MDCK cells assessed as reduction in virus induced cell death after 5 days by CCK-8 assay
Readout kind: EC50 (nM)

O=C(O)[C@H]1C2CCC(CC2)[C@@H]1Nc1nc(-c2c[nH]c3ncc(F)cc23)nc2ccoc12; 5.3
N#Cc1cn([C@H]2C3CCC(CC3)[C@@H]2C(=O)O)c2nc(-c3c[nH]c4ncc(F)cc34)ncc12; 70
Cc1cnc2c(N[C@H]3C4CCC(CC4)[C@@H]3C(=O)O)nc(-c3c[nH]c4ncc(F)cc34)nc2c1; 11
O=C(O)[C@H]1C2CCC(CC2)[C@@H]1Nc1nc(-c2c[nH]c3ncc(F)cc23)nc2c1CCC2; 5.5
Cc1cccc2nc(-c3c[nH]c4ncc(F)cc34)nc(N[C@H]3C4CCC(CC4)[C@@H]3C(=O)O)c12; 11
O=C(O)[C@H]1C2CCC(CC2)[C@@H]1Nc1nc(-c2n[nH]c3ncc(F)cc23)nc2sccc12; 0.06
O=C(O)[C@H]1C2CCC(CC2)[C@@H]1Nc1nc(-c2c[nH]c3ncc(F)cc23)nc2ccsc12; 0.5
O=C(O)[C@H]1C2CCC(CC2)[C@@H]1Nc1nc(-c2c[nH]c3ncc(F)cc23)nc2sccc12; 0.2

Source listed as BindingDB's records for doi:10.1016/j.ejmech.2018.11.015.
